Below: a set of entries, each annotated with reported pIC50.
target: mTOR (Homo sapiens, UniProt P42345); test: Lanthascreen kinase binding assay, assay G; settings: read-out: Assay G mTOR IC50
pIC50: −log10 of the molar value.

Examples from the recorded data:
* Cc1cc(-c2nc(-c3cc(S(=O)(=O)NC[C@H](C)O)ccc3C)cnc2N)ccn1 | < 5.04
* Cc1cc(-c2nc(-c3cc(S(=O)(=O)NC4CCOCC4)ccc3C)cnc2N)ccn1 | < 5.04
* Cc1ccc(S(=O)(=O)NCCC(C)(C)O)cc1-c1cnc(N)c(-c2cn(C)nc2C)n1 | < 5.04

Reported pIC50 for Cc1ccc(S(=O)(=O)NCCC(C)(C)O)cc1-c1cnc(N)c(-c2cnn(CC(C)C)c2)n1 : what is it?
5.22

Record: Cc1cc(-c2nc(-c3cc(S(=O)(=O)NCC4CCCO4)ccc3C)cnc2N)ccn1 (stereo not shown)
< 5.04

Record: Cc1ccc(S(=O)(=O)N[C@H]2C[C@@H](O)C2)cc1-c1cnc(N)c(-n2cncn2)n1 [Example 71b]
< 5.00

Record: Cc1ccc(S(=O)(=O)NCCC(C)(C)O)cc1-c1cnc(N)c(-n2ccnc2)n1
< 5.04

Record: CC[C@@H](CO)NS(=O)(=O)c1ccc(C)c(-c2cnc(N)c(-c3ccnc(C)c3)n2)c1
< 5.04

Record: CCc1noc(-c2nc(-c3cc(S(=O)(=O)N4CCC(CO)CC4)ccc3C)cnc2N)n1
< 5.04

Record: Cc1cc(-c2nc(-c3cc(S(=O)(=O)NCC4CCCCO4)ccc3C)cnc2N)ccn1 (stereo not shown)
< 5.04

Record: Cc1ccc(S(=O)(=O)N[C@H]2CC[C@H](O)CC2)cc1-c1cnc(N)c(-c2nc(C(C)C)no2)n1
5.19

Record: Cc1noc(-c2nc(-c3cc(S(=O)(=O)NCCC(C)(C)O)ccc3C)cnc2N)n1
< 5.04

Record: Cc1ccc(S(=O)(=O)NCCC(C)(C)O)cc1-c1cnc(N)c(-c2ccncc2)n1
5.32

Record: Cc1ccc(S(=O)(=O)NCC2(CO)CCCCC2)cc1-c1cnc(N)c(-n2cncn2)n1
5.44

Record: Cc1ccc(S(=O)(=O)N[C@H]2CC[C@H](O)CC2)cc1-c1cnc(N)c(-c2cccnc2)n1
5.10

Record: Cc1ccc(S(=O)(=O)N[C@H]2CC[C@](C)(O)CC2)cc1-c1cnc(N)c(-n2cncn2)n1 [Example 69a]
5.04
